- procedureText: Dye stabilization effect under daylight exposure (Test Examples 6-91)
- Assay type: physicochemical
- Set-up: key: color difference ΔE in Lab vs. color before daylight exposure
- settings: dye Green 3 (Fast Green FCF) 0.001 wt %; photostabilizer 0.05 wt %; daylight exposure (80 MJ)
Recorded Δ E, one value per entry.
Give a plain numeric answer without units written out.

>  <compound>
OCCN(CCO)c1cnnc(O)c1

>  <Δ E>
0.62

$$$$
>  <compound>
Oc1ccc(N2CCOCC2)nn1 [3-Hydroxy-6-morpholinopyridazine, 6-Morpholino-3-hydroxypyridazine]

>  <Δ E>
0.43

$$$$
>  <compound>
Oc1nnccc1N1CCCCC1 [3-Hydroxy-4-piperidinopyridazine, 3-hydroxy-4-piperidinopyridazine]

>  <Δ E>
0.46

$$$$
>  <compound>
COc1cc(O)c(C(=O)c2ccccc2)cc1S(=O)(=O)[O-].[Na+] [reference compound]

>  <Δ E>
0.74

$$$$
>  <compound>
COc1ccc(C(=O)CC(=O)c2ccc(C(C)(C)C)cc2)cc1 [4-tert-Butyl-4′-methoxydibenzoylmethane, reference compound]

>  <Δ E>
0.62

$$$$
>  <compound>
Oc1cc(N2CCCCC2)cnn1 [3-Hydroxy-5-piperidinopyridazine, 3-hydroxy-5-piperidinopyridazine]

>  <Δ E>
0.45

$$$$

As a next step, examine the compound that follows.
Dear colleague, I am looking for the recorded Δ E of the following compound: OCCNc1ccc(NCCO)nn1 [3,6-Bis(2-hydroxyethylamino)pyridazine, 3,6-bis(2-hydroxyethylamino)pyridazine]
0.63
